// pKd lookup, one value per entry
Experiment: Binding affinity to 5' FAM/3' TAMRA labeled HRAS1 G-quadruplex DNA (unknown origin) by FRET analysis
// pKd here means minus log10 of the molar concentration (mol/L)

# annotated cases, reported pKd shown
N=C(CCl)NCCCCNc1c2c(c(NCCCCNC(=N)CCl)c3sccc13)C(=O)c1ccccc1C2=O
6.64
N=C(CCl)NCCNc1c2c(c(NCCNC(=N)CCl)c3sccc13)C(=O)c1ccccc1C2=O
6.21
N=C(CCl)NCCCNc1c2c(c(NCCNC(=N)CCl)c3ccsc13)C(=O)c1ccccc1C2=O
6.75
N=C(CCl)NCCCNc1c2c(c(NCCNC(=N)CCl)c3sccc13)C(=O)c1ccccc1C2=O
6.75

Next compound, please.
Inquiry: Which measured pKd value corresponds to N=C(CCl)NCCCNc1c2c(c(NCCCNC(=N)CCl)c3sccc13)C(=O)c1ccccc1C2=O ?
Reply text: 6.59
